Data origin, for the record: ChEMBL document CHEMBL2062435

Tested on: Staphylococcus epidermidis
Assay comment: Antimicrobial activity against extended spectrum beta-lactamases-producing methicillin-sensitive Staphylococcus epidermidis 10-11 after 18-24 hrs by two-fold serial dilution method
Format: functional
Values of MIC strictly less than 2 µg/mL map to 1 (yes), and values of at least 2 µg/mL map to 0 (no).

Input: Lab note: confirm whether the reported MIC for this compound is below 2 µg/mL, equality not counting. compound: CS(=O)(=O)O.NCC1CN(c2nc3c(cc2F)c(=O)c(C(=O)O)cn3C2CC2)C/C1=N\OCc1cc2c(cc1[N+](=O)[O-])OCO2 (racemic)
Output: 1 (yes)

Input: Lab note: confirm whether the reported MIC for this compound is below 2 µg/mL, equality not counting. compound: CS(=O)(=O)O.NCC1CN(c2nc3c(cc2F)c(=O)c(C(=O)O)cn3C2CC2)C/C1=N\OCc1ccc2c(c1)OCCO2 (racemic)
Output: 1 (yes)

Input: Lab note: confirm whether the reported MIC for this compound is below 2 µg/mL, equality not counting. compound: COc1cc(CO/N=C2\CN(c3nc4c(cc3F)c(=O)c(C(=O)O)cn4C3CC3)CC2CN)ccc1OCc1ccccc1.CS(=O)(=O)O (racemic)
Output: 0 (no)

Input: Lab note: confirm whether the reported MIC for this compound is below 2 µg/mL, equality not counting. compound: COc1cc(CO/N=C2\CN(c3nc4c(cc3F)c(=O)c(C(=O)O)cn4C3CC3)CC2CN)ccc1OC(F)F.CS(=O)(=O)O (racemic)
Output: 1 (yes)

Input: Lab note: confirm whether the reported MIC for this compound is below 2 µg/mL, equality not counting. compound: COc1cc(Br)c(CO/N=C2\CN(c3nc4c(cc3F)c(=O)c(C(=O)O)cn4C3CC3)CC2CN)cc1OC.CS(=O)(=O)O (racemic)
Output: 1 (yes)

Input: Lab note: confirm whether the reported MIC for this compound is below 2 µg/mL, equality not counting. compound: CO/N=C1\CN(c2nc3c(cc2F)c(=O)c(C(=O)O)cn3C2CC2)CC1CN (centres undefined)
Output: 0 (no)

Input: Lab note: confirm whether the reported MIC for this compound is below 2 µg/mL, equality not counting. compound: C[C@H]1COc2c(N3CCN(C)CC3)c(F)cc3c(=O)c(C(=O)O)cn1c23.C[C@H]1COc2c(N3CCN(C)CC3)c(F)cc3c(=O)c(C(=O)O)cn1c23.O
Output: 0 (no)

Input: Lab note: confirm whether the reported MIC for this compound is below 2 µg/mL, equality not counting. compound: CS(=O)(=O)O.NCC1CN(c2nc3c(cc2F)c(=O)c(C(=O)O)cn3C2CC2)C/C1=N\OCc1ccc(OCc2ccccc2)cc1 (racemic)
Output: 1 (yes)

Input: Lab note: confirm whether the reported MIC for this compound is below 2 µg/mL, equality not counting. compound: CS(=O)(=O)O.Cc1ccc(CO/N=C2\CN(c3nc4c(cc3F)c(=O)c(C(=O)O)cn4C3CC3)CC2CN)cc1C (racemic)
Output: 1 (yes)

Input: Lab note: confirm whether the reported MIC for this compound is below 2 µg/mL, equality not counting. compound: COc1ccc(CO/N=C2\CN(c3nc4c(cc3F)c(=O)c(C(=O)O)cn4C3CC3)CC2CN)cc1.CS(=O)(=O)O (racemic)
Output: 1 (yes)

Input: Lab note: confirm whether the reported MIC for this compound is below 2 µg/mL, equality not counting. compound: COc1ccc(CO/N=C2\CN(c3nc4c(cc3F)c(=O)c(C(=O)O)cn4C3CC3)CC2CN)c([N+](=O)[O-])c1OC.CS(=O)(=O)O (racemic)
Output: 0 (no)

Input: Lab note: confirm whether the reported MIC for this compound is below 2 µg/mL, equality not counting. compound: COc1ccc(OC)c(CO/N=C2\CN(c3nc4c(cc3F)c(=O)c(C(=O)O)cn4C3CC3)CC2CN)c1.CS(=O)(=O)O (racemic)
Output: 1 (yes)
